Read-out: Secreted IgG (sIgG), gene 3500
measurement.protocol: BSK_BT_sIgG: BioMAP Diversity Plus: BT Assay for Secreted IgG (sIgG) Biomarker Activity (AID 2284226)
recorded.conditions: primary human B cells with PBMC
Calls of active or inactive are those of the source. The calls were made as follows: active = hit-call score of the fitted dose curve at least 0.9, where 1 is the maximum; inactive = score below 0.9.
Outcomes: 1 (yes) (active), 0 (no) (inactive)

compound | assigned.class
FC(F)(F)C(F)(F)C(F)(F)C(F)(F)C(F)(F)C(F)(F)I | 0 (no)
O=S(=O)(O)CCC(F)(F)C(F)(F)C(F)(F)C(F)(F)C(F)(F)C(F)(F)F | 0 (no)
FC(F)C(F)(F)COCC1CO1 (stereo not drawn) | 0 (no)
Cc1cccc(O)c1C | 0 (no)
FC(F)=C(F)C(F)(F)C(F)(F)C(F)(F)C(F)(F)C(F)(F)C(F)(F)F | 0 (no)
FC(F)(F)COC(OCC(F)(F)F)OCC(F)(F)F | 0 (no)
S=P(N1CC1)(N1CC1)N1CC1 | 1 (yes)
C[Si](C)(C)C(F)(F)C(F)(F)C(F)(F)F | 0 (no)

* * *

Read-out: 3-Hydroxy-3-Methylglutaryl-CoA Synthase 2 (HMGCS2), HMGCS2 (gene 3158)
measurement.protocol: LTEA_HepaRG_HMGCS2: Life Technologies and Expression Analysis (LTEA) Assay for 3-Hydroxy-3-Methylglutaryl-CoA Synthase 2 (HMGCS2) using HepaRG (AID 2283504)
recorded.conditions: mRNA level, 48 h; actives raise or lower the signal
Calls of active or inactive are those of the source. How the source made its calls: active means hit-call score of the fitted dose curve at least 0.9, where 1 is the maximum; inactive means score below 0.9.
Outcome codes: 1.0 (active), 0.0 (inactive)

molecule | assigned.class
OCCNCCO | 1.0
CCCCCOC(C)=O | 0.0
C=CN1CCCC1=O | 0.0
c1ccc2cc3ccccc3cc2c1 | 0.0
CCCc1ccccc1 | 0.0
O=C(O)c1ccc2c(c1)nc(C(=O)NC1CCN(C3CC3)CC1)n2Cc1cc(-c2ccc(Cl)s2)on1 | 0.0
OCc1ccccc1 | 0.0
OCCOCCOCCO | 0.0
NC(=O)NN=Cc1ccc([N+](=O)[O-])o1 | 1.0
NC(N)=O | 0.0
CC(C)c1nnc2ccc(-c3ocnc3-c3cc(F)ccc3F)cn12 | 1.0
CCc1cccc(CC)c1N | 0.0
CC(C)C(=O)Nc1ccc([N+](=O)[O-])c(C(F)(F)F)c1 | 1.0
CCOc1ccc2[nH]cc(C(=O)NCc3ccccc3)c(=O)c2n1 | 0.0
OC[C@H]1O[C@@H]2O[C@H]3[C@H](O)[C@@H](O)[C@@H](O[C@H]4[C@H](O)[C@@H](O)[C@@H](O[C@H]5[C@H](O)[C@@H](O)[C@@H](O[C@H]6[C@H](O)[C@@H](O)[C@@H](O[C@H]7[C@H](O)[C@@H](O)[C@@H](O[C@H]1[C@H](O)[C@H]2O)O[C@@H]7CO)O[C@@H]6CO)O[C@@H]5CO)O[C@@H]4CO)O[C@@H]3CO | 0.0
C[C@@H](Oc1ccc(CNC(=O)c2cccnc2Oc2ccc3c(c2)OCO3)c(F)c1)C(=O)O | 1.0
O=C1CN(N=Cc2ccc([N+](=O)[O-])o2)C(=O)N1 | 1.0
COCc1nnc(-c2ccc[n+]([O-])c2)n1-c1c(Cl)c(Cl)cc2[nH]c(=O)c(=O)[nH]c12 | 0.0
CC(C)CC(C)O (centres undefined) | 0.0
COc1cc(C(C)C)c2c(c1)S(=O)(=O)N(COc1cc(=O)n3cccc(OCCN4CCCCC4)c3n1)C2=O | 1.0
C=CCc1cc(S(=O)(=O)c2ccc(O)c(CC=C)c2)ccc1O | 1.0
CC[C@H](C)C(=O)O[C@H]1C[C@H](O)C=C2C=C[C@H](C)[C@H](CC[C@@H](O)C[C@@H](O)CC(=O)O)[C@H]21 | 0.0
CC1(C)C(=O)N(Cl)C(=O)N1Cl | 0.0
Nc1ccn([C@@H]2O[C@H](CO)[C@@H](O)[C@@H]2O)c(=O)n1 | 0.0
Cn1c(=O)c2[nH]cnc2n(C)c1=O | 0.0
O=c1[nH]cnc2c1ncn2[C@H]1CC[C@@H](CO)O1 | 0.0
O=S(=O)(O)c1ccc(N=Nc2c(O)ccc3cc(S(=O)(=O)O)ccc23)cc1 | 0.0
Cc1ncc([C@@H](CCCCCCc2ccc3c(n2)NCCC3)CC(=O)O)cn1 | 0.0
CCCCCCCC1CCC(=O)O1 (centres undefined) | 0.0
O=C(O)c1cccc(C[C@@H]2COc3ccc(OCc4nc5cc(F)ccc5s4)cc3[C@@H]2O)c1 | 1.0
Cn1cc[nH]c1=S | 0.0
CCCC(CCC)C(=O)O | 0.0
Cc1nc(-c2ccccn2)ncc1C(=O)Nn1cc(C)c2cc(F)ccc21 | 1.0
CCN(CC)C(=S)SSC(=S)N(CC)CC | 0.0
O=C(O)c1cccc(C(=O)O)c1 | 0.0
OC[C@H]1O[C@@](CO)(O[C@H]2O[C@H](CO)[C@@H](O)[C@H](O)[C@H]2O)[C@@H](O)[C@@H]1O | 0.0
CCCCOC(=O)c1ccccc1 | 0.0
CCCCCCCCCCCCCCCCOS(=O)(=O)O | 0.0
Cc1ccc(S(=O)(=O)NC(=O)NN2CCCCCC2)cc1 | 0.0
CC(=O)c1ccccc1 | 0.0
CCCCCCCC/C=C\CCCCCCCC(=O)OC[C@@H](O)[C@H]1OC[C@H](O)[C@H]1O | 0.0
CCCCC(CC)C(=O)OCCOCCOCCOC(=O)C(CC)CCCC (centres undefined) | 0.0
CCn1nc(C)c2c1C(=O)NCC(c1ccc(O)cc1)=N2 | 0.0
CCCOc1ccc(S(=O)(=O)N2CCN(CC)CC2)cc1-c1nc2c(CC)n(Cc3ccccn3)nc2c(=O)[nH]1 | 0.0

* * *

Read-out: Cyclin D1 (CCND1), CCND1 (gene 595)
measurement.protocol: LTEA_HepaRG_CCND1: Life Technologies and Expression Analysis (LTEA) Assay for Cyclin D1 (CCND1) using HepaRG (AID 2283451)
recorded.conditions: mRNA level, 48 h; actives raise or lower the signal
The source made the active and inactive calls. Rule for the calls: active = hit-call score of the fitted dose curve at least 0.9, where 1 is the maximum; inactive = score below 0.9.
Possible outcomes: active, inactive

compound | assigned.class
CCCC(CCC)C(=O)O | inactive
COS(C)(=O)=O | inactive
CCOC(N)=O | inactive
O=S(=O)(O)c1ccc(N=Nc2c(O)ccc3cc(S(=O)(=O)O)ccc23)cc1 | inactive
CC(C)CCCCCCOC(=O)C1CCCCC1C(=O)OCCCCCCC(C)C (configuration not stated) | inactive
CC(C)c1nnc2ccc(-c3ocnc3-c3cc(F)ccc3F)cn12 | inactive
COc1cc2c(c(OC)c1OC)-c1ccc(OC)c(=O)cc1[C@@H](NC(C)=O)CC2 | active
OC(Cn1cncn1)(Cn1cncn1)c1ccc(F)cc1F | inactive
O=C1CN(N=Cc2ccc([N+](=O)[O-])o2)C(=O)N1 | inactive
CCCCCCCCCC | inactive
OC[C@H]1O[C@@](CO)(O[C@H]2O[C@H](CO)[C@@H](O)[C@H](O)[C@H]2O)[C@@H](O)[C@@H]1O | inactive
CCCCCCOC(=O)CC(CC(=O)OCCCCCC)(OC(=O)CCC)C(=O)OCCCCCC | inactive

* * *

measurement.protocol: CCTE_Shafer_MEA_dev_per_burst_interspike_interval: CCTE's Neural Network Formation Assay for Burst Interspike Interval, Shafer Lab (AID 2284044);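 also: mean spike spacing inside bursts as AUC over recordings on days 5 7 9 12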
Activity calls are given as the source filed them. Rule for the calls: active = hit-call score of the fitted dose curve at least 0.9, where 1 is the maximum; inactive = score below 0.9.
Possible outcomes: class 1 = active, class 0 = inactive

smiles | assigned.class
CC[C@H](C)C(=O)O[C@H]1C[C@H](O)C=C2C=C[C@H](C)[C@H](CC[C@@H](O)C[C@@H](O)CC(=O)O)[C@H]21 | class 0
CCCC(CCC)C(=O)O | class 0
OC(O)(C(F)C(O)(O)C(F)(F)F)C(F)(F)F | class 0
Cn1cc[nH]c1=S | class 0
COc1cc2c(c(OC)c1OC)-c1ccc(OC)c(=O)cc1[C@@H](NC(C)=O)CC2 | class 1

* * *

Read-out: sulfotransferase 2A1 (SULT2A1), SULT2A1 (gene 6822)
measurement.protocol: LTEA_HepaRG_SULT2A1: Life Technologies and Expression Analysis (LTEA) Assay for sulfotransferase 2A1 (SULT2A1) using HepaRG (AID 2283531)
recorded.conditions: mRNA level, 48 h; actives raise or lower the signal
Activity calls are given as the source filed them. The calls were made as follows: active = hit-call score of the fitted dose curve at least 0.9, where 1 is the maximum; inactive = score below 0.9.
Outcome codes: T = active, F = inactive

smiles | assigned.class
Cc1nccn1-c1ccc(Sc2cccc(C3(C(N)=O)CCOCC3)c2)cc1 | T
Cc1ncc([C@@H](CCCCCCc2ccc3c(n2)NCCC3)CC(=O)O)cn1 | F
CCCC(CCC)C(=O)O | F
CC[C@H](C)C(=O)O[C@H]1C[C@H](O)C=C2C=C[C@H](C)[C@H](CC[C@@H](O)C[C@@H](O)CC(=O)O)[C@H]21 | F
CC(C)c1nnc2ccc(-c3ocnc3-c3cc(F)ccc3F)cn12 | T
CNC(C)=O | F
OC(CCl)CCl | F
CCOC(N)=O | F
O=C(O)c1ccc2c(c1)nc(C(=O)NC1CCN(C3CC3)CC1)n2Cc1cc(-c2ccc(Cl)s2)on1 | F
NC(N)=O | F
CC(C)C(=O)Nc1ccc([N+](=O)[O-])c(C(F)(F)F)c1 | T
OCC(CO)(CO)CO | F
CC1(C)C(=O)N(Cl)C(=O)N1Cl | F
Cn1c(=O)c2[nH]cnc2n(C)c1=O | F
CCCCN1C(=O)[C@@H]([C@H](O)C2CCCCC2)NC(=O)C12CCN(Cc1ccc(Oc3ccc(C(=O)O)cc3)cc1)CC2 | T
CCOc1ccc2[nH]cc(C(=O)NCc3ccccc3)c(=O)c2n1 | F
COc1cc2c(c(OC)c1OC)-c1ccc(OC)c(=O)cc1[C@@H](NC(C)=O)CC2 | T
NC(=O)N1c2ccccc2C=Cc2ccccc21 | F
CC(=O)c1ccccc1 | F
COS(C)(=O)=O | F
NC(=O)N(O)[C@@H]1COc2cc(OCc3ccccc3)ccc21 | F
O=S(=O)(O)c1ccc(N=Nc2c(O)ccc3cc(S(=O)(=O)O)ccc23)cc1 | F
CCCCCCCCCCCCCCCCOS(=O)(=O)O | F
c1ccc2cc3ccccc3cc2c1 | F
C[C@@H](Oc1ccc(CNC(=O)c2cccnc2Oc2ccc3c(c2)OCO3)c(F)c1)C(=O)O | F
CCCCCCOC(=O)CC(CC(=O)OCCCCCC)(OC(=O)CCC)C(=O)OCCCCCC | F
COCc1nnc(-c2ccc[n+]([O-])c2)n1-c1c(Cl)c(Cl)cc2[nH]c(=O)c(=O)[nH]c12 | F
c1ccc2ncccc2c1 | F
Nc1ccn([C@@H]2O[C@H](CO)[C@@H](O)[C@@H]2O)c(=O)n1 | F
CCc1cccc(CC)c1N | F
CCCCCCCC/C=C\CCCCCCCC(=O)OC[C@@H](O)[C@H]1OC[C@H](O)[C@H]1O | F
C=CN1CCCC1=O | F
CCCCCOC(C)=O | F
CCCCCCCCCCCCCCO | F
NNC(=O)c1ccncc1 | F
OCCOCCOCCO | F
CCCOc1ccc(S(=O)(=O)N2CCN(CC)CC2)cc1-c1nc2c(CC)n(Cc3ccccn3)nc2c(=O)[nH]1 | T
C[C@]12C=CC(=O)C=C1CC[C@H]1[C@@H]3C[C@@H](O)[C@](O)(C(=O)CO)[C@@]3(C)C[C@H](O)[C@@]12F | F
O=c1[nH]cnc2c1ncn2[C@H]1CC[C@@H](CO)O1 | F
